# Study target: human ether-à-go-go-related gene (hERG) potassium channel (human)
# Test method notes: primary screen, population patch clamp on CHO cells stably expressing hERG; higher = less effect of the substance
About 14,000 (4.5%) of roughly 310,000 compounds showed an effect of 50% or more. Effects have a minus sign here. This is one part of a sample in which strong results are shown more often than they occur.
Assign yes (1) to entries whose hERG current change (%, negative = inhibition) at 10uM meets or exceeds -20%; assign no (0) to the rest.

CNCc1c(OCc2ccccc2F)ccc2ccccc12.Cl :: no (0)
Cc1cc(OC(C)C(=O)N(Cc2ccco2)C2CCS(=O)(=O)C2)cc(C)c1Cl (stereo not shown) :: yes (1)
Cc1cc(OCCOCCN(C)CCO)cc(C)c1Cl :: no (0)

Exercise: API: above_or_equal(metric=hERG current change (%, negative = inhibition) at 10uM, cutoff=-20%) for item CC(O)CNCCNCc1c(OCc2ccccc2)ccc2ccccc12.Cl (stereo not shown)
Solution: no (0)

Exercise: Tell me whether hERG current change (%, negative = inhibition) at 10uM is at least -20% here: `CCOc1cc(CNCCO)cc(Br)c1OCc1ccc(Cl)cc1.Cl`
Solution: yes (1)

Exercise: Does hERG current change (%, negative = inhibition) at 10uM meet or surpass -20% for Cc1ccc(C2(C)NC(=O)N(CC(=O)Nc3ccccc3C(=O)N3CCCCC3)C2=O)cc1 (stereo not shown) ?
Solution: yes (1)

Exercise: Would you say `COc1ccc(OCC(=O)N/N=C2\CCc3ccccc32)cc1` shows hERG current change (%, negative = inhibition) at 10uM at minimum -20%?
Solution: no (0)

Exercise: Given the entry `CCOc1ccc(/C=N/N(C)c2ccccc2)cc1OC` , answer whether its hERG current change (%, negative = inhibition) at 10uM meets or surpasses -20%.
Solution: yes (1)

Exercise: Has `CNCc1ccccc1OCc1ccccc1F.Cl` a recorded hERG current change (%, negative = inhibition) at 10uM greater than or equal to -20%?
Solution: yes (1)

Exercise: Item `Cc1ccc(NC(=O)Cn2cnc3ccccc32)cc1C` with hERG current change (%, negative = inhibition) at 10uM of -20% or above?
Solution: yes (1)

---

Listed here: items and their measured hERG current change (%, negative = inhibition) at 10uM.
# Study target: human ether-à-go-go-related gene (hERG) potassium channel (human, UniProt Q12809)
# Sequence (Q12809 whole entry, looked up): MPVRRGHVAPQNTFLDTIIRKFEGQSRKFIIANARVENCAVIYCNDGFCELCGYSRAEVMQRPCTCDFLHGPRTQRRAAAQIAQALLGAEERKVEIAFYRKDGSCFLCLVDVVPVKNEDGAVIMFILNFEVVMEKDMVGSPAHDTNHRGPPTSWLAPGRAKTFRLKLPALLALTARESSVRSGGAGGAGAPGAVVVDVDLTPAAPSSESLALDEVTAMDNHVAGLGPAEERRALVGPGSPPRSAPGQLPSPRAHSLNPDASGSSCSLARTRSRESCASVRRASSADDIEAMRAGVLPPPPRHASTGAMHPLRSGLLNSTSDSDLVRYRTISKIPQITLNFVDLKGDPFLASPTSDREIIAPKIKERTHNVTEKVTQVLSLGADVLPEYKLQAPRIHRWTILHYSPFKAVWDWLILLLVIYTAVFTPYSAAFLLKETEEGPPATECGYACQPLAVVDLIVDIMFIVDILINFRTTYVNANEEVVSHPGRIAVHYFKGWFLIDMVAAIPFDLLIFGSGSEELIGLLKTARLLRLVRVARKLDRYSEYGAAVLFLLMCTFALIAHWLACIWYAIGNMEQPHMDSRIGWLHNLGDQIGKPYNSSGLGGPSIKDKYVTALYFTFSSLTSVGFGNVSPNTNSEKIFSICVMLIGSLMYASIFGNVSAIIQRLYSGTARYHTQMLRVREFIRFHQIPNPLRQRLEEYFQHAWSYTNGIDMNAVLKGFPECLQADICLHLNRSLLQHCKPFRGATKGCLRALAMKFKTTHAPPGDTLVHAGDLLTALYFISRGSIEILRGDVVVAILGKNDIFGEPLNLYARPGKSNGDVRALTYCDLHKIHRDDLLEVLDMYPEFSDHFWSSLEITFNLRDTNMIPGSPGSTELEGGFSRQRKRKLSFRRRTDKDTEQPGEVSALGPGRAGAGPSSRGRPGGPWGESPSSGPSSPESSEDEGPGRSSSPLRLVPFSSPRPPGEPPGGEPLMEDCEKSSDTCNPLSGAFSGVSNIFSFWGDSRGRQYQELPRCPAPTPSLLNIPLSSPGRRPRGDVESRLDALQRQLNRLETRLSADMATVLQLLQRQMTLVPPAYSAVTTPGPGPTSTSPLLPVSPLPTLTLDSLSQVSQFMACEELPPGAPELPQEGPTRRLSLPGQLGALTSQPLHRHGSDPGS
# Test method notes: primary screen, population patch clamp on CHO cells stably expressing hERG; higher = less effect of the substance
Hit rate of the full screen: of about 310,000 compounds, about 14,000 (4.5%) showed an effect of 50% or more. Effects have a minus sign here. The entries come from a sample that favours strong results as a whole.

// solved cases for hERG current change (%, negative = inhibition) at 10uM follow
O=C(Nc1ccc(S(=O)(=O)Nc2ccccn2)cc1)c1ccc(Cl)cc1Cl :: 2.92%
COc1cc(SC)ccc1C(=O)N1CCN(c2ccccc2F)CC1 :: -33.8%
C[C@H]1CN=C(N(C)C)N1CCc1ccc(F)cc1 :: -12.4%

Exercise: # query: hERG current change (%, negative = inhibition) at 10uM of entry `O=C1c2ccc(Oc3ccc4c(c3)C(=O)N(CCCO)C4=O)cc2C(=O)N1CCCO`
Solution: -1.78%

---

Reported hERG current change (%, negative = inhibition) at 10uM values follow for various compounds
# Study target: human ether-à-go-go-related gene (hERG) potassium channel (human, UniProt Q12809);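 further: peak tail current of the secondary pulse compared with the same well before compound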
# Test method notes: primary screen, population patch clamp on CHO cells stably expressing hERG; higher = less effect of the substance
# Experimental: Briefly, Chinese hamster ovary (CHO) cells stably expressing the hERG channel were dislodged from tissue culture flasks and dispensed into PPC plates. […] During the recording, background leak currents were estimated by a 100 ms step to -80 mV from an initial holding potential of -70 mV and subtracted from the subsequent current measurement. The campaign was conducted in two phases using slight differences in recording protocol. […]
Screen size: about 310,000 compounds; about 14,000 (4.5%) showed an effect of 50% or more. The effect is printed as a negative number. The sample holds strong results, similar compounds and a random draw of the others, so the mix is not that of the screen.
Unit % implied. Number only.

# annotated cases, reported hERG current change (%, negative = inhibition) at 10uM shown
COc1ccc(NC(=O)CCNS(=O)(=O)c2ccc3c(c2)c(=O)n(C)c(=O)n3C)cc1 :: -2.03
Cc1ccsc1C(=O)C1CCCN(Cc2ccccc2O)C1 (centres unmarked) :: -48.1
CN(C)C(=O)/C(=C/c1ccc(-c2cccc([N+](=O)[O-])c2)o1)NC(=O)c1ccccc1 :: -21.3
Cc1ccc(-c2cc(-c3ccccc3)cc(-c3ccccc3)[n+]2-c2ccccc2)cc1.[O-][Cl+3]([O-])([O-])[O-] :: -82.1
CN(C)CCNC(=O)/C(=C/c1ccc(-c2cccc([N+](=O)[O-])c2)o1)NC(=O)c1ccccc1 :: -75.4
COc1ccc(C2=NOC3(CC(=O)N(c4ccc(C)cc4)C3=O)C2)c(OC)c1 (centres unmarked) :: 4.08
C=CCN(CC=C)c1nc2ccccc2nc1C(C#N)C(=O)OCCOC (centres unmarked) :: -29.8
O=C(NC1CCCCC1)c1cc([N+](=O)[O-])ccc1N1CCCC1 :: -0.526

Consider now this further compound.
Exercise: Any idea what hERG current change (%, negative = inhibition) at 10uM was measured for `C=CCNC(=O)/C(=C/c1cn(-c2ccccc2)nc1-c1cccc([N+](=O)[O-])c1)NC(=O)c1ccccc1` ?
Solution: -3.58

---

# Study target: human ether-à-go-go-related gene (hERG) potassium channel (human);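 further: peak tail current of the secondary pulse compared with the same well before compound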
# Test method notes: primary screen, population patch clamp on CHO cells stably expressing hERG; higher = less effect of the substance
Hit rate of the full screen: of about 310,000 compounds, about 14,000 (4.5%) showed an effect of 50% or more. Effects have a minus sign here. The entries come from a sample that favours strong results as a whole.
Assay endpoint: hERG current change (%, negative = inhibition) at 10uM (%)
// return numeric value only (unit: %, not printed)

CCCSc1nsc(NC(=O)CC)n1 :: -30.5
COCCN(Cc1cc2ccc(C)c(C)c2nc1Cl)C(=O)N1CCOCC1 :: -11
Cc1ccn2cc(C(=O)N3CCN(c4cnn(-c5ccccc5)c(=O)c4Cl)CC3)nc2c1 :: -46.7
CC(C)c1ccc(C(=O)N2CCCN(C(=O)c3ccc(C(C)C)cc3)CC2)cc1 :: -32.9

Exercise: Dear colleague, I am looking for the recorded hERG current change (%, negative = inhibition) at 10uM of the following molecule: `CCOc1cccc(CNCCO)c1OCc1ccc(Cl)cc1.Cl`
Solution: -53.2

Exercise: Given the entry Cl.O=C(c1ccco1)N1CCN(C(c2ccccc2Cl)c2nnnn2Cc2ccco2)CC1 (stereo not shown) , report its measured hERG current change (%, negative = inhibition) at 10uM.
Solution: -65.1

Exercise: Entry under review: COc1ccc(C2CC(c3cccs3)=NN2c2ccc(F)cc2)cc1OC (stereo not shown) . Reported hERG current change (%, negative = inhibition) at 10uM?
Solution: 26.6

---

# Study target: human ether-à-go-go-related gene (hERG) potassium channel (human);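 further: peak tail current of the secondary pulse compared with the same well before compound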
# Test method notes: primary screen, population patch clamp on CHO cells stably expressing hERG; higher = less effect of the substance
Hit rate of the full screen: of about 310,000 compounds, about 14,000 (4.5%) showed an effect of 50% or more. The effect is printed as a negative number. The list comes from a sample in which strong results are over-represented; it also holds close analogues and randomly drawn compounds.
The following molecules are listed with their measured hERG current change (%, negative = inhibition) at 10uM values.
Just the number please, in %, no unit attached.

The examples below pair each entry with its known result.
O=C(C1CCCCC1)N1CCc2[nH]c3ccc(F)cc3c2C1 :: -3.94
Cc1ccc(C(=O)NC2CCN(S(=O)(=O)c3ccc(F)cc3)CC2)cc1 :: 11.6
Cc1nc(NS(=O)(=O)c2ccc(Cl)s2)c2c3c(sc2n1)CCCC3 :: -28.7

Exercise: // lookup hERG current change (%, negative = inhibition) at 10uM for CC(NCc1ccc(Cl)cc1)C(O)c1ccccc1.Cl (stereo not drawn)
Solution: 0.613

Exercise: Find the recorded hERG current change (%, negative = inhibition) at 10uM belonging to `O=C(CNC(=O)c1ccco1)OCc1c(F)cccc1Cl` and report it.
Solution: -5.42

Exercise: Any idea what its hERG current change (%, negative = inhibition) at 10uM is? The molecule is `Cc1cccc(NC(=O)CC2c3ccccc3Oc3ccccc32)c1`
Solution: 18

---

# Study target: human ether-à-go-go-related gene (hERG) potassium channel (human);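 further: peak tail current of the secondary pulse compared with the same well before compound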
# Test method notes: primary screen, population patch clamp on CHO cells stably expressing hERG; higher = less effect of the substance
The campaign covered roughly 310,000 compounds. About 14,000 (4.5%) showed an effect of 50% or more. The effect is printed as a negative number. Many of the other results were omitted from the sample, so strong results are more common in it than they were.
Decide by hERG current change (%, negative = inhibition) at 10uM: equal to or exceeding -10% means T, less means F.

Completed entries (count: 5):
COc1ccc2oc(C(=O)c3ccccc3)c(NC(=O)CN3CCN(C)CC3)c2c1 :: F
O=C(c1ccc(OC2CCN(CCc3ccccc3)CC2)cc1)N1CCCC1 :: F
CC1CCCN(C(=O)c2ccc(OC3CCN(CCc4ccccc4)CC3)cc2)C1 (stereo not drawn) :: F
Cc1ccc(CNC(=O)CN(c2cccc([N+](=O)[O-])c2)S(C)(=O)=O)cc1 :: T
CC(=O)N1CCN(C(=O)c2ccc(OC3CCN(CCc4ccccc4)CC3)cc2)CC1 :: T

Exercise: For this compound, is measured hERG current change (%, negative = inhibition) at 10uM -10% or higher? `Cc1ccc(CSCCNC(=O)CSCc2ccc([N+](=O)[O-])cc2)cc1`
Solution: F

Exercise: Please indicate if the recorded hERG current change (%, negative = inhibition) at 10uM for `CC(C)CCN1C(Nc2ccccc2)=NC[C@@H]1C` meets or exceeds -10%.
Solution: T

Exercise: Does the compound `CN(C)S(=O)(=O)c1cccc(-c2nn(-c3ccccc3)cc2/C=C2\SC(=S)NC2=O)c1` have recorded hERG current change (%, negative = inhibition) at 10uM that is -10% or more?
Solution: T

Exercise: Given `CC(=O)c1oc2ccccc2c1NC(=O)CN1CCCCC1.Cl` , state whether its hERG current change (%, negative = inhibition) at 10uM is at least -10%.
Solution: T

Exercise: Hi, just wondering whether CC(CCN1C(Nc2ccccc2)=NC[C@@H]1Cc1ccccc1)c1ccccc1 (stereo partly drawn) shows hERG current change (%, negative = inhibition) at 10uM of -10% or higher.
Solution: F

Exercise: Record `COc1ccc(N2CCN(c3nc(NCCO)nc(N4CCOCC4)n3)CC2)cc1` ; criterion: hERG current change (%, negative = inhibition) at 10uM no lower than -10%. Met?
Solution: T

Exercise: Does the compound CC(C)C[C@H]1CN=C(Nc2ccccc2)N1CCC(C)c1ccccc1 (stereo partly drawn) have recorded hERG current change (%, negative = inhibition) at 10uM that is -10% or more?
Solution: F

Ref: paper PMC4336329
